TEST SUMMARY: solubility in culture medium
Type: physicochemical
MEASURE: solubility

> print(dat)
                         compound.structure    value
1  C#Cc1cccc(Nc2ncnc3cc(OCCOC)c(OCCOC)cc23)c1  ≤ 20 µM

---

Tested on: MDA-MB-231 cell line
TEST SUMMARY: cell viability IC50 determination
Format: cell-based
MEASUREMENT CONDITIONS: Homo sapiens, MDA-MB-231, read-out: IC50 (MDA-MB-231)
MEASURE: IC50

> print(dat)
                                   compound          assay.system    value
1  C#Cc1cccc(Nc2ncnc3cc(OCCOC)c(OCCOC)cc23)c1 [erlotinib]  MDA-MB-231 cell line  > 20 µM
